Biological target: GCN2 (Homo sapiens, UniProt Q9P2K8)
Sequence (Q9P2K8 whole entry): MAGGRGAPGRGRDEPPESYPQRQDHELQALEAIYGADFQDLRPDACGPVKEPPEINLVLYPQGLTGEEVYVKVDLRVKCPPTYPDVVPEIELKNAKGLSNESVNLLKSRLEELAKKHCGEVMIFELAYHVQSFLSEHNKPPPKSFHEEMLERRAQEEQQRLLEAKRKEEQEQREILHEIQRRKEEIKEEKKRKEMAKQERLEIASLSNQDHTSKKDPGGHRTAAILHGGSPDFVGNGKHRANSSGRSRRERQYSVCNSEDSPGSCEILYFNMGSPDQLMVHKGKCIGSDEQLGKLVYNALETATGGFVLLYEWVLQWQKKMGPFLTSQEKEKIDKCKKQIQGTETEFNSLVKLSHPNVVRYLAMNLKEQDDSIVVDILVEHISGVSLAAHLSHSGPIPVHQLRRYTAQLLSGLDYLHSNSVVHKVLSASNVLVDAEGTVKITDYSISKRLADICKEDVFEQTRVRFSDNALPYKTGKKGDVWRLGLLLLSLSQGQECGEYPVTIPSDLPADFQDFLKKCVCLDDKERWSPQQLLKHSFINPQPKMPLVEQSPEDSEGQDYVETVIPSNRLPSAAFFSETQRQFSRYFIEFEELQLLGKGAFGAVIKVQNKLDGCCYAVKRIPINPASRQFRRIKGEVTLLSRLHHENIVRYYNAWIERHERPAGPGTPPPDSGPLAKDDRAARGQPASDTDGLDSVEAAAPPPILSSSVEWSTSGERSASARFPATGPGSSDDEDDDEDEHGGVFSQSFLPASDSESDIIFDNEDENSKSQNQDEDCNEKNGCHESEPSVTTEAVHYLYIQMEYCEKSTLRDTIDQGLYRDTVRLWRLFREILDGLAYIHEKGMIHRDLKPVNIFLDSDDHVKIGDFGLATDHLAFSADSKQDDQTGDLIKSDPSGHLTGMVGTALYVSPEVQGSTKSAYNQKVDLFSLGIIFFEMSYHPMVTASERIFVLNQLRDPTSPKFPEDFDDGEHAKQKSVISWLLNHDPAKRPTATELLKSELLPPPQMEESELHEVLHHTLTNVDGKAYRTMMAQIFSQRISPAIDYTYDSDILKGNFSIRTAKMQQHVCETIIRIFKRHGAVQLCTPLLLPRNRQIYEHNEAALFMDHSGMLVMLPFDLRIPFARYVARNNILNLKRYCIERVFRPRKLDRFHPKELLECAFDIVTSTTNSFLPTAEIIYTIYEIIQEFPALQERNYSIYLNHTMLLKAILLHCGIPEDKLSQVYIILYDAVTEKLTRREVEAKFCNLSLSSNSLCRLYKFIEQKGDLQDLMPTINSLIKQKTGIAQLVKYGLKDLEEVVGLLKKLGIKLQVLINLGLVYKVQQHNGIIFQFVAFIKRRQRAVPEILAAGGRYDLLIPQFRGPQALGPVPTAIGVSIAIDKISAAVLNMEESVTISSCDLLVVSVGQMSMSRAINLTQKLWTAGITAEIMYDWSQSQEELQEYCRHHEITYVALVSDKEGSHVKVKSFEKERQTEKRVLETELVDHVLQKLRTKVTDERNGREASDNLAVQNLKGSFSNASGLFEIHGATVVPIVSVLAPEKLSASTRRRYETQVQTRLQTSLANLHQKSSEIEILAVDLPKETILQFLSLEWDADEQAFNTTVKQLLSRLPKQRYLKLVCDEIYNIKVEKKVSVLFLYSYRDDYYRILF
Assay: TR-FRET biochemical assay for inhibition of GCN2 (Example 106, for Example 1-4BB)
Conditions: Table 9
pIC50: −log10 of the molar value.
For each of the molecules below, state its pIC50.

What does the data say about its pIC50? Entry: COc1ncc(Cl)cc1S(=O)(=O)Nc1cccc(-c2ncc3c(-c4ncc[nH]4)n[nH]c3c2F)c1F
> 6.30

What does the data say about its pIC50? Entry: COc1ncc(F)cc1S(=O)(=O)Nc1ccc(F)c(-c2ccc3c(C(=O)NCC(CO)CO)n[nH]c3c2F)c1F
> 6.30

What does the data say about its pIC50? Entry: COc1ncc(Cl)cc1S(=O)(=O)Nc1cc(F)cc(-c2ccc3c(-c4ncc[nH]4)n[nH]c3c2F)c1F
> 6.30

What does the data say about its pIC50? Entry: Cc1ncc(F)cc1S(=O)(=O)Nc1cc(F)cc(-c2ccc3c(C(=O)NCCCN(C)C)n[nH]c3c2F)c1F
> 6.30

What does the data say about its pIC50? Entry: Cc1ncc(F)cc1S(=O)(=O)Nc1ccc(F)c(-c2ccc3c(C(N)=O)n[nH]c3c2F)c1F
> 6.30

What does the data say about its pIC50? Entry: COc1ncc(C#N)cc1S(=O)(=O)Nc1ccc(F)c(-c2ccc3c(C(N)=O)n[nH]c3c2F)c1F [Example 4D]
> 6.30

What does the data say about its pIC50? Entry: COc1ncc(F)cc1S(=O)(=O)Nc1cccc(-c2ccc3c(-c4ncc[nH]4)n[nH]c3c2C)c1F
5.60 to 6.30

What does the data say about its pIC50? Entry: COc1ncc(F)cc1S(=O)(=O)Nc1ncc(F)c(-c2ccc3c(-c4nc(CO)c[nH]4)n[nH]c3c2F)c1F
> 6.30

What does the data say about its pIC50? Entry: O=C(NCCCO)c1n[nH]c2c(F)c(-c3c(F)ccc(NS(=O)(=O)c4cc(F)cc5c4CCC5O)c3F)ccc12 (centres unmarked)
> 6.30

What does the data say about its pIC50? Entry: COc1ncc(F)cc1S(=O)(=O)Nc1cccc(-c2ccc3c(-c4ncc[nH]4)n[nH]c3c2Cl)c1F
5.60 to 6.30

What does the data say about its pIC50? Entry: O=S(=O)(Nc1ncc(F)c(-c2ccc3c(-c4ncc[nH]4)n[nH]c3c2F)c1F)c1cc(F)ccc1F
> 6.30

What does the data say about its pIC50? Entry: Cc1c(CO)cc(F)cc1S(=O)(=O)Nc1ccc(F)c(-c2ccc3c(-c4ncc[nH]4)n[nH]c3c2F)c1F
> 6.30

What does the data say about its pIC50? Entry: COc1ncc(Cl)cc1S(=O)(=O)Nc1ccc(F)c(-c2ccc3c(C(=O)Nc4cnn(CCO)c4)n[nH]c3c2F)c1F
> 6.30

What does the data say about its pIC50? Entry: COc1ncc(CO)cc1S(=O)(=O)Nc1ccc(F)c(-c2ccc3c(-c4ncc[nH]4)n[nH]c3c2F)c1F
5.60 to 6.30
